Data credit: patent US20240124605A1

TARGET UNDER TEST: T1, CD123 expressed on the surface of cells (OCI-AML2, MOLM13, NALM6-CD123+) (human, UniProt P26951 19-378)
T1 chain: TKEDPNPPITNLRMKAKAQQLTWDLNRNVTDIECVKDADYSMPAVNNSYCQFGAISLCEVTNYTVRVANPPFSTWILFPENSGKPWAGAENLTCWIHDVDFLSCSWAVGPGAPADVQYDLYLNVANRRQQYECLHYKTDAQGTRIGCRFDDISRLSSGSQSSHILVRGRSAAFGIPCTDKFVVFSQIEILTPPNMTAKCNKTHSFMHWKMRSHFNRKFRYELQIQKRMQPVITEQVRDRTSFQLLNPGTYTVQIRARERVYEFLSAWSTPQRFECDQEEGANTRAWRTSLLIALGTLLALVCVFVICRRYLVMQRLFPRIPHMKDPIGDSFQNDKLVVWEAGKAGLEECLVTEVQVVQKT
EXPERIMENT: flow cytometry

[
  {
    "BINDER": "Adapter protein comprising the 8O3S D domain and a P26(Q26-V229) AFP polypeptide (designed binder, also called 6T1D(W16T); not shown: His tag (purified on Ni-Sepharose)) MGSWDEFGRRLYAIETQLYALGGTEAELAAFEKEIAAFESELQAYKGKGNPEVEKLREIAAVIRENLQAYRHNQESQALAKRSCGLFQKLGEYYLQNAFLVAYTKKAPQLTSSELMAITRKMAATAATCCQLSEDKLLACGEGAADIIIGHLCIRHEMTPVNPGVGQCCTSSYANRRPCFSSLVVDETYVPPAFSDDKFIFHKDLCQAQGVALQTMKQEFLINLVKQKPQITEEQLEAVIADFSGLLEKCCQGQEQEVCFAEEGQKLISKTRAALGV",
    "EC50 / µg/mL": 4.62
  },
  {
    "BINDER": "Adapter protein comprising the 4I0K D domain and a P26(Q26-V229) AFP polypeptide (designed binder, also called 6T1D(W16S); not shown: His tag (purified on Ni-Sepharose)) MGSWDEFGRRLYAIESQLYALGGTEAELAAFEKEIAAFESELQAYKGKGNPEVEKLREIAAVIRENLQAYRHNQESQALAKRSCGLFQKLGEYYLQNAFLVAYTKKAPQLTSSELMAITRKMAATAATCCQLSEDKLLACGEGAADIIIGHLCIRHEMTPVNPGVGQCCTSSYANRRPCFSSLVVDETYVPPAFSDDKFIFHKDLCQAQGVALQTMKQEFLINLVKQKPQITEEQLEAVIADFSGLLEKCCQGQEQEVCFAEEGQKLISKTRAALGV",
    "EC50 / µg/mL": 4.26
  },
  {
    "BINDER": "Adapter protein comprising the 6T1D D domain and a P26(Q26-V229) AFP polypeptide (designed binder, also called parental D domain (6T1D); not shown: His tag (purified on Ni-Sepharose)) MGSWDEFGRRLYAIEWQLYALGGTEAELAAFEKEIAAFESELQAYKGKGNPEVEKLREIAAVIRENLQAYRHNQESQALAKRSCGLFQKLGEYYLQNAFLVAYTKKAPQLTSSELMAITRKMAATAATCCQLSEDKLLACGEGAADIIIGHLCIRHEMTPVNPGVGQCCTSSYANRRPCFSSLVVDETYVPPAFSDDKFIFHKDLCQAQGVALQTMKQEFLINLVKQKPQITEEQLEAVIADFSGLLEKCCQGQEQEVCFAEEGQKLISKTRAALGV",
    "EC50 / µg/mL": 2.61
  },
  {
    "BINDER": "Adapter protein comprising the 4R8U D domain and a P26(Q26-V229) AFP polypeptide (designed binder, also called 6T1D(K48E, N50S); not shown: His tag (purified on Ni-Sepharose)) MGSWDEFGRRLYAIEWQLYALGGTEAELAAFEKEIAAFESELQAYKGEGSPEVEKLREIAAVIRENLQAYRHNQESQALAKRSCGLFQKLGEYYLQNAFLVAYTKKAPQLTSSELMAITRKMAATAATCCQLSEDKLLACGEGAADIIIGHLCIRHEMTPVNPGVGQCCTSSYANRRPCFSSLVVDETYVPPAFSDDKFIFHKDLCQAQGVALQTMKQEFLINLVKQKPQITEEQLEAVIADFSGLLEKCCQGQEQEVCFAEEGQKLISKTRAALGV",
    "EC50 / µg/mL": 1.9
  },
  {
    "BINDER": "Adapter protein comprising the 3F4N D domain and a P26(Q26-V229) AFP polypeptide (designed binder, also called 6T1D(N50S); not shown: His tag (purified on Ni-Sepharose)) MGSWDEFGRRLYAIEWQLYALGGTEAELAAFEKEIAAFESELQAYKGKGSPEVEKLREIAAVIRENLQAYRHNQESQALAKRSCGLFQKLGEYYLQNAFLVAYTKKAPQLTSSELMAITRKMAATAATCCQLSEDKLLACGEGAADIIIGHLCIRHEMTPVNPGVGQCCTSSYANRRPCFSSLVVDETYVPPAFSDDKFIFHKDLCQAQGVALQTMKQEFLINLVKQKPQITEEQLEAVIADFSGLLEKCCQGQEQEVCFAEEGQKLISKTRAALGV",
    "EC50 / µg/mL": 1.83
  },
  {
    "BINDER": "Adapter protein comprising the 5B1Q D domain and a P26(Q26-V229) AFP polypeptide (designed binder, also called 6T1D(G8S, L21Q, K48E, N50S, I59L); not shown: His tag (purified on Ni-Sepharose)) MGSWDEFSRRLYAIEWQLYAQGGTEAELAAFEKEIAAFESELQAYKGEGSPEVEKLRELAAVIRENLQAYRHNQESQALAKRSCGLFQKLGEYYLQNAFLVAYTKKAPQLTSSELMAITRKMAATAATCCQLSEDKLLACGEGAADIIIGHLCIRHEMTPVNPGVGQCCTSSYANRRPCFSSLVVDETYVPPAFSDDKFIFHKDLCQAQGVALQTMKQEFLINLVKQKPQITEEQLEAVIADFSGLLEKCCQGQEQEVCFAEEGQKLISKTRAALGV",
    "EC50 / µg/mL": 3.22
  },
  {
    "BINDER": "Adapter protein comprising the 0C8S D domain and a P26(Q26-V229) AFP polypeptide (designed binder, also called 0085; 6T1D(G8S, K48E, N50S, I59L); not shown: His tag (purified on Ni-Sepharose)) MGSWDEFSRRLYAIEWQLYALGGTEAELAAFEKEIAAFESELQAYKGEGSPEVEKLRELAAVIRENLQAYRHNQESQALAKRSCGLFQKLGEYYLQNAFLVAYTKKAPQLTSSELMAITRKMAATAATCCQLSEDKLLACGEGAADIIIGHLCIRHEMTPVNPGVGQCCTSSYANRRPCFSSLVVDETYVPPAFSDDKFIFHKDLCQAQGVALQTMKQEFLINLVKQKPQITEEQLEAVIADFSGLLEKCCQGQEQEVCFAEEGQKLISKTRAALGV",
    "EC50 / µg/mL": 2.44
  }
]
